Sourced from patent US12661410B2

molecular target: RET(KD: 658-1114 G810R) (Homo sapiens, UniProt P07949, G810R); construct: 658-1114; expressed in transfected cells; host or cells: 293T.165 (293T cells, generated in-house); test: HiBiT-Degradation, RET G810R degradation assay (Nano-Glo HiBiT Lytic), 293T.165 cells; type: cell-based; conditions: 6.0 hours, % remaining protein, read-out: 293T.165 RET(KD: 658-1114 G810R) 6.0 hours (Emax)
Sequence (P07949 658-1114 G810R): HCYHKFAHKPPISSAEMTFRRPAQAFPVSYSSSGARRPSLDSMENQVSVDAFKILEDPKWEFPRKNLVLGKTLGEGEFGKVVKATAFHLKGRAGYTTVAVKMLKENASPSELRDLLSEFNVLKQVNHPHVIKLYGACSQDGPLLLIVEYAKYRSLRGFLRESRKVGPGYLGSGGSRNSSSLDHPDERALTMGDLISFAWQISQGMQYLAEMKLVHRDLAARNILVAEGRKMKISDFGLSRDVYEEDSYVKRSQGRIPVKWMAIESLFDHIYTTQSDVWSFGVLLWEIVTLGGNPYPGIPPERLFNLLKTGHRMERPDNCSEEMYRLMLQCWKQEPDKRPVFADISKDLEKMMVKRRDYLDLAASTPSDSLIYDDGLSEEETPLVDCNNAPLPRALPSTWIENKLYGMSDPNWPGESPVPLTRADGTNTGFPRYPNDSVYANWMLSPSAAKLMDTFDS
test.readout: Emax

Case CCC1(C(=O)NC2CCCC2)CCN(c2ccc(-c3nc(-c4cnn([C@H]5CC[C@H](N6CCC(c7ccc(N[C@@H]8CCC(=O)NC8=O)cc7F)CC6)CC5)c4)cn4ncc(C#N)c34)cn2)CC1 [Compound 142] , RET(KD: 658-1114 G810R) (Homo sapiens, UniProt P07949, G810R), Emax recorded as < 30%

Case CCC1(C(=O)NC(C)C)CCN(c2ccc(-c3nc(-c4cnn(C5CCN(C(=O)Cc6ccc(-c7ccc(NC8CCC(=O)NC8=O)cc7F)cc6)CC5)c4)cn4ncc(C#N)c34)cn2)CC1 (stereo not drawn) [Compound 89] , RET(KD: 658-1114 G810R) (Homo sapiens, UniProt P07949, G810R), Emax recorded as < 50%

Case CCOc1ccc(CN2[C@@H]3COC[C@H]2CN(c2ccc(-c4nc(-c5cnn([C@H]6CC[C@H](N7CCN(c8c(F)cc(NC9CCC(=O)NC9=O)cc8F)CC7)CC6)c5)cn5ncc(C#N)c45)cn2)C3)cn1 (mixture of isomers) [Compound 212] , RET(KD: 658-1114 G810R) (Homo sapiens, UniProt P07949, G810R), Emax recorded as < 30%

Case CC(C)NC(=O)C1(C)CCN(c2ccc(-c3cc(-c4ccc(N5CCN(C(=O)CN6CCC(c7ccc(NC8CCC(=O)NC8=O)cc7F)CC6)CC5)cc4)cn4ncc(C#N)c34)cn2)CC1 (stereo not drawn) [Compound 45] , RET(KD: 658-1114 G810R) (Homo sapiens, UniProt P07949, G810R), Emax recorded as < 30%

Case N#Cc1cnn2cc(-c3cnn([C@H]4CC[C@H](N5CCC(c6ccc(N[C@@H]7CCC(=O)NC7=O)cc6F)CC5)CC4)c3)nc(-c3ccc(N4CCC5(CC4)OCc4cccnc45)nc3)c12 (single isomer, unassigned) [Compound 180] , RET(KD: 658-1114 G810R) (Homo sapiens, UniProt P07949, G810R), Emax recorded as < 30%

Case N#Cc1cnn2cc(-c3cnn([C@H]4CC[C@H](N5CCC(c6ccc(NC7CCC(=O)NC7=O)cc6F)CC5)CC4)c3)nc(-c3ccc(N4CC5COCC(C4)N5Cc4ccccn4)nc3)c12 (single isomer, unassigned) [Compound 154] , RET(KD: 658-1114 G810R) (Homo sapiens, UniProt P07949, G810R), Emax recorded as < 30%

Case N#Cc1cnn2cc(-c3ccc(N4CCN(C(=O)CN5CCC(c6ccc(NC7CCC(=O)NC7=O)cc6)CC5)CC4)cc3)cc(-c3ccc(C4(CO)CCCCC4)nc3)c12 (stereo not drawn) [Compound 21] , RET(KD: 658-1114 G810R) (Homo sapiens, UniProt P07949, G810R), Emax recorded as < 50%

Case N#Cc1cnn2cc(-c3cnn(C4CCN(C(=O)CC5(O)CCN(c6ccc(NC7CCC(=O)NC7=O)cc6F)CC5)CC4)c3)nc(-c3ccc(N4CCN(C(=O)c5cccnc5)CC4)nc3)c12 (stereo not drawn) [Compound 106] , RET(KD: 658-1114 G810R) (Homo sapiens, UniProt P07949, G810R), Emax recorded as < 50%

Case N#Cc1cnn2cc(-c3cnn([C@H]4CC[C@H](CCN5CCC(c6ccc(NC7CCC(=O)NC7=O)cc6F)CC5)CC4)c3)cc(-c3ccc(N4CCN(C(=O)Cc5ccc(F)cn5)CC4)nc3)c12 (stereo partly drawn) [Compound 57] , RET(KD: 658-1114 G810R) (Homo sapiens, UniProt P07949, G810R), Emax recorded as < 30%
